Quick list: viscosity per entry.
# MEASUREMENT PARAMETERS: 293.15 K; 101.33 kPa; Liquid; Cone and plate viscometry
Enter your answer as a number in mPa·s; do not include the unit.

CCCC[n+]1cccn1C.O=S(=O)([N-]S(=O)(=O)C(F)(F)F)C(F)(F)F [1-butyl-2-methylpyrazolium bis(trifluoromethylsulfonyl)imide] = 88

Now let's try a different one.
Query block: # viscosity lookup, item CCCCCCCCSC(N(C)C)=[N+](C)C.O=S(=O)([N-]S(=O)(=O)C(F)(F)F)C(F)(F)F
Result block: 140

----------
Catalogue of compounds with associated mass density
# MEASUREMENT PARAMETERS: 293.15 K; 101.33 kPa; Liquid; Vibrating tube method
Give the value, in units of kg/m3, as a plain number.

CCC=Cn1cc[n+](C)c1C.O=[N+]([O-])c1cn[n-]c1 [1-but-1-enyl-2,3-dimethylimidazolium 4-nitropyrazolide] = 1184.2
CCCCCCCC[P+](CC)(CC)CC.O=[N+]([O-])c1cn[n-]c1 [triethyloctylphosphonium 4-nitropyrazolide] = 1033.9
CC[P+](CC)(CC)COCCOC.O=[N+]([O-])c1cn[n-]c1 = 1142.4
CCCCCCCC[P+](CC)(CC)CC.O=S(=O)([N-]S(=O)(=O)C(F)(F)F)C(F)(F)F [triethyloctylphosphonium bis(trifluoromethylsulfonyl)imide] = 1248.1
CCCCCCCCCCCCCC[P+](CCCCCC)(CCCCCC)CCCCCC.N#Cc1nc[n-]c1C#N [trihexyl(tetradecyl)phosphonium 4,5-dicyanoimidazolide] = 922.6

Here is the next item to consider.
Query block: Which mass density reading was recorded for the compound CCCCCCCCCCCCCC[P+](CCCCCC)(CCCCCC)CCCCCC.Clc1nc[n-]c1Cl [trihexyl(tetradecyl)phosphonium 4,5-dichloroimidazolide] ?
Result block: 967.5

----------
# MEASUREMENT PARAMETERS: 313.15 K; 101.33 kPa; Liquid; Vibrating tube method
Classification field: enter fulfilled for mass density values not below 1000 kg/m3, not fulfilled for values below it.

Below are worked cases with known answers.
CCCCCC[n+]1ccn(C)c1.O=S(=O)([N-]S(=O)(=O)C(F)(F)F)C(F)(F)F = fulfilled
CCCC[n+]1cccn1C.O=S(=O)([N-]S(=O)(=O)C(F)(F)F)C(F)(F)F [1-butyl-2-methylpyrazolium bis(trifluoromethylsulfonyl)imide] = fulfilled
CCC=Cn1cc[n+](C)c1C.O=[N+]([O-])c1cn[n-]c1 [1-but-1-enyl-2,3-dimethylimidazolium 4-nitropyrazolide] = fulfilled
CC[P+](CC)(CC)COCCOC.O=S(=O)([N-]S(=O)(=O)C(F)(F)F)C(F)(F)F = fulfilled
CC[P+](CC)(CC)COCCOC.O=[N+]([O-])c1cn[n-]c1 = fulfilled

Query block: I'd appreciate it if you could say whether CCCCCCCCCCCCCC[P+](CCCCCC)(CCCCCC)CCCCCC.Clc1nc[n-]c1Cl [trihexyl(tetradecyl)phosphonium 4,5-dichloroimidazolide] has mass density at least equal to 1000 kg/m3.
Result block: not fulfilled

Query block: Can you handle CCCCCCCCCCCCCC[P+](CCCCCC)(CCCCCC)CCCCCC.O=[N+]([O-])c1cn[n-]c1 [trihexyl(tetradecyl)phosphonium 4-nitropyrazolide] next?
Result block: not fulfilled

----------
# MEASUREMENT PARAMETERS: 308.15 K; 101.33 kPa; Liquid; Cone and plate viscometry
MEASURED METRIC: log10 of viscosity (log10 of the value in mPa·s)
# values: log10(viscosity), units mPa·s

# example entries with known answers
CCCCCCn1cc[n+](C)c1C.O=[N+]([O-])c1cn[n-]c1 [1-hexyl-2,3-dimethylimidazolium 4-nitropyrazolide] = 2.65
CCCCCCCCCCCCCC[P+](CCCCCC)(CCCCCC)CCCCCC.Cc1ncc([N+](=O)[O-])[n-]1 [trihexyl(tetradecyl)phosphonium 2-methyl-5-nitroimidazolide] = 2.76
CCCCCCSC(N(C)C)=[N+](C)C.O=S(=O)([N-]S(=O)(=O)C(F)(F)F)C(F)(F)F = 1.74
CCC=C[P+](CC)(CC)CC.O=[N+]([O-])c1cn[n-]c1 [(buten-1-yl)triethylphosphonium 4-nitropyrazolide] = 1.90

Query block: # get_value(readout='log10 of viscosity', item= CCCCCCn1cc[n+](C)c1.O=[N+]([O-])c1cn[n-]c1 [1-hexyl-3-methylimidazolium 4-nitropyrazolide] )
Result block: 2.28

Query block: Also CCCCCCn1cc[n+](C)c1.N#Cc1ccc[n-]1 [1-hexyl-3-methylimidazolium 2-cyanopyrrolide] , if possible.
Result block: 2.09

Query block: Item: CC[P+](CC)(CC)COCCOC.O=[N+]([O-])c1cn[n-]c1
Result block: 1.74

Query block: And what about the molecule CCCCCCCCCCCCCC[P+](CCCCCC)(CCCCCC)CCCCCC.O=S(=O)([N-]S(=O)(=O)C(F)(F)F)C(F)(F)F ?
Result block: 2.27

Query block: Also, CCC[n+]1ccn(C)c1C.O=[N+]([O-])c1cn[n-]c1 [1,2-dimethyl-3-propylimidazolium 4-nitropyrazolide] please.
Result block: 2.47

Query block: Item: CCCCCCCCC[P+](CC)(CC)CC.O=[N+]([O-])c1cn[n-]c1 [triethylnonylphosphonium 4-nitropyrazolide]
Result block: 2.20

Query block: Next: CCCCCCCC[P+](CC)(CC)CC.O=S(=O)([N-]S(=O)(=O)C(F)(F)F)C(F)(F)F [triethyloctylphosphonium bis(trifluoromethylsulfonyl)imide]
Result block: 1.86

Query block: How about this molecule: CCCCCCCC[P+](CC)(CC)CC.O=[N+]([O-])c1c[n-]cn1 [triethyloctylphosphonium 4-nitroimidazolide]
Result block: 2.19

Query block: Okay, and CCCCCCCCCCCCCC[P+](CCCCCC)(CCCCCC)CCCCCC.Clc1nc[n-]c1Cl [trihexyl(tetradecyl)phosphonium 4,5-dichloroimidazolide] ?
Result block: 2.62

----------
viscosity overview
# MEASUREMENT PARAMETERS: 288.15 K; 101.33 kPa; Liquid; Cone and plate viscometry
Express it in mPa·s; write the number only.

CCCCCC[n+]1ccn(C)c1.O=S(=O)([N-]S(=O)(=O)C(F)(F)F)C(F)(F)F = 113
CCCCCCCC[P+](CC)(CC)CC.Cc1ncc([N+](=O)[O-])[n-]1 [triethyloctylphosphonium 2-methyl-5-nitroimidazolide] = 1440
CCCCCCC[P+](CC)(CC)CC.O=[N+]([O-])c1cn[n-]c1 [triethylheptylphosphonium 4-nitropyrazolide] = 443
CCCC[P+](CC)(CC)CC.O=[N+]([O-])c1cn[n-]c1 [butyltriethylphosphonium 4-nitropyrazolide] = 372

Query block: For CCCC[n+]1cccn1C.O=S(=O)([N-]S(=O)(=O)C(F)(F)F)C(F)(F)F [1-butyl-2-methylpyrazolium bis(trifluoromethylsulfonyl)imide] , what is its reported viscosity?
Result block: 116

Query block: Now try CC(=O)[O-].CCCCCCn1cc[n+](C)c1 [3-hexyl-1-methylimidazolium acetate] .
Result block: 3550

Query block: Consider next the compound CCCCCCCC[P+](CC)(CC)CC.O=[N+]([O-])c1c[n-]cn1 [triethyloctylphosphonium 4-nitroimidazolide] in the same way.
Result block: 547

----------
# MEASUREMENT PARAMETERS: 313.15 K; 101.33 kPa; Liquid; Vibrating tube method
Numbers after ± are expanded uncertainties.
Overview of recorded mass density for various molecules
The number alone won't do; follow it with the unit.

CC(=O)[O-].CCCCCCCCCCCCCC[P+](CCCCCC)(CCCCCC)CCCCCC [trihexyl(tetradecyl)phosphonium acetate] = 876.8 ± 4.3 kg/m3
CCCCCCCCCCCCCC[P+](CCCCCC)(CCCCCC)CCCCCC.O=[N+]([O-])c1c[n-]cn1 [trihexyl(tetradecyl)phosphonium 4-nitroimidazolide] = 931.3 ± 4.7 kg/m3
CCCCCCn1cc[n+](C)c1C.O=[N+]([O-])c1cn[n-]c1 [1-hexyl-2,3-dimethylimidazolium 4-nitropyrazolide] = 1109.2 ± 6.7 kg/m3
CCCCCCCC[P+](CC)(CC)CC.O=[N+]([O-])c1cn[n-]c1 [triethyloctylphosphonium 4-nitropyrazolide] = 1022 ± 5.6 kg/m3

Query block: Consider the molecule shown here: CCC[n+]1ccn(C)c1C.O=[N+]([O-])c1cn[n-]c1 [1,2-dimethyl-3-propylimidazolium 4-nitropyrazolide] What is its recorded mass density?
Result block: 1172.2 ± 7.5 kg/m3

Query block: Next molecule up: CCCCCCn1cc[n+](C)c1.N#Cc1ccc[n-]1 [1-hexyl-3-methylimidazolium 2-cyanopyrrolide]
Result block: 1012.8 ± 5.5 kg/m3

----------
# MEASUREMENT PARAMETERS: 303.15 K; 101.33 kPa; Liquid; Cone and plate viscometry
Could you mark each record class 1 if its viscosity falls strictly under 200 mPa·s, and class 0 if it equals or exceeds it?

Use the examples below as a reference point.
CCCCCCCCSC(N(C)C)=[N+](C)C.O=S(=O)([N-]S(=O)(=O)C(F)(F)F)C(F)(F)F = class 1
CCCC[P+](CC)(CC)CC.O=[N+]([O-])c1cn[n-]c1 [butyltriethylphosphonium 4-nitropyrazolide] = class 1
CCCCCCn1cc[n+](C)c1.O=[N+]([O-])c1cn[n-]c1 [1-hexyl-3-methylimidazolium 4-nitropyrazolide] = class 0
CCCCCCCC[P+](CC)(CC)CC.O=[N+]([O-])c1cn[n-]c1 [triethyloctylphosphonium 4-nitropyrazolide] = class 1
CC(=O)[O-].CCCCCCCCCCCCCC[P+](CCCCCC)(CCCCCC)CCCCCC [trihexyl(tetradecyl)phosphonium acetate] = class 0

Query block: For CCCCCCCCCCCCCC[P+](CCCCCC)(CCCCCC)CCCCCC.O=[N+]([O-])c1c[n-]cn1 [trihexyl(tetradecyl)phosphonium 4-nitroimidazolide] , is the recorded viscosity below the cut-off of 200 mPa·s?
Result block: class 0

Query block: Now consider CCCCCCCC[P+](CC)(CC)CC.Cc1ncc([N+](=O)[O-])[n-]1 [triethyloctylphosphonium 2-methyl-5-nitroimidazolide] and answer again.
Result block: class 0

Query block: Subsequent entry: CCCCCCCCCCCCCC[P+](CCCCCC)(CCCCCC)CCCCCC.N#Cc1nc[n-]c1C#N [trihexyl(tetradecyl)phosphonium 4,5-dicyanoimidazolide]
Result block: class 0

Query block: What would you report for CCOCc1n(CC)cc[n+]1C.O=S(=O)([N-]S(=O)(=O)C(F)(F)F)C(F)(F)F ?
Result block: class 1

Query block: Can you check CCC=C[P+](CC)(CC)CC.O=[N+]([O-])c1cn[n-]c1 [(buten-1-yl)triethylphosphonium 4-nitropyrazolide] next?
Result block: class 1

Query block: Request: CCCCCCCCCCCCCC[P+](CCCCCC)(CCCCCC)CCCCCC.O=S(=O)([N-]S(=O)(=O)C(F)(F)F)C(F)(F)F
Result block: class 0

Query block: Next compound: CCCC[n+]1cccn1C.O=S(=O)([N-]S(=O)(=O)C(F)(F)F)C(F)(F)F [1-butyl-2-methylpyrazolium bis(trifluoromethylsulfonyl)imide]
Result block: class 1

The values you see were collected from the NIST ThermoML archive (doi:10.1021/acs.jced.6b00269).
